# ASSAY_DETAILS: MTT cell viability assay, adriamycin-induced apoptosis
# Type: cell-based
# ASSAY_CONTEXT: dog, MDCK cells, of untreated cells, read-out: cell viability, adriamycin alone
PARAMETER_MEASURED: viability (%)
Just the number in %, nothing appended.

Need viability, item COc1cccc2c1C(=O)c1c(O)c3c(c(O)c1C2=O)C[C@@](O)(C(=O)CO)C[C@@H]3O[C@H]1C[C@H](N)[C@H](O)[C@H](C)O1 [Adriamycin, reference compound]
56
